Species on record: Gallus gallus
measurementDescription: Inhibitory activity against the [3H]-thymidine incorporation into DNA of normal chicken embryo fibroblasts at 5 hr of treatment
Assay type: functional
appliedConditions: read-out: ED50 (the source's name)
# EC50 values compiled below
parameterMeasured: EC50 (µM)

- COc1cccc2c1C(=O)c1c(O)c3c(c(O)c1C2=O)C[C@@](O)(C(=O)CO)C[C@@H]3OC1CC(NC(=O)[C@H](CCCCN)NC(=O)[C@H](CC(C)C)NC(=O)[C@H](N)C(C)C)C(O)C(C)O1 (some centres not stated): 54
- COc1cccc2c1C(=O)c1c(O)c3c(c(O)c1C2=O)C[C@@](O)(C(=O)CO)C[C@@H]3O[C@H]1C[C@H](N)[C@H](O)[C@H](C)O1: 0.9

----------
Organism: Gallus gallus
measurementDescription: Inhibitory activity against the [3H]thymidine incorporation into DNA of Rous Sarcoma virus transformed chicken embryo fibroblasts at 24 hr of treatment
Assay type: functional
appliedConditions: read-out: ED50 (the source's name)
pEC50: −log10 of the molar value.
List of pEC50 values.
parameterMeasured: pEC50

* COc1cccc2c1C(=O)c1c(O)c3c(c(O)c1C2=O)C[C@@](O)(C(=O)CO)C[C@@H]3O[C@H]1C[C@H](N)[C@H](O)[C@H](C)O1 | 6.74
* COc1cccc2c1C(=O)c1c(O)c3c(c(O)c1C2=O)C[C@@](O)(C(=O)CO)C[C@@H]3OC1CC(NC(=O)[C@H](CCCCN)NC(=O)[C@H](CC(C)C)NC(=O)[C@H](N)C(C)C)C(O)C(C)O1 (some centres not stated) | 6.10
